# targetEntity: T1, recombinant Glypican-1 (R&D systems 4519-GP-050) (Homo sapiens (Human), UniProt P35052 24-530)
# T1 construct: Bought protein
# T1 sequence: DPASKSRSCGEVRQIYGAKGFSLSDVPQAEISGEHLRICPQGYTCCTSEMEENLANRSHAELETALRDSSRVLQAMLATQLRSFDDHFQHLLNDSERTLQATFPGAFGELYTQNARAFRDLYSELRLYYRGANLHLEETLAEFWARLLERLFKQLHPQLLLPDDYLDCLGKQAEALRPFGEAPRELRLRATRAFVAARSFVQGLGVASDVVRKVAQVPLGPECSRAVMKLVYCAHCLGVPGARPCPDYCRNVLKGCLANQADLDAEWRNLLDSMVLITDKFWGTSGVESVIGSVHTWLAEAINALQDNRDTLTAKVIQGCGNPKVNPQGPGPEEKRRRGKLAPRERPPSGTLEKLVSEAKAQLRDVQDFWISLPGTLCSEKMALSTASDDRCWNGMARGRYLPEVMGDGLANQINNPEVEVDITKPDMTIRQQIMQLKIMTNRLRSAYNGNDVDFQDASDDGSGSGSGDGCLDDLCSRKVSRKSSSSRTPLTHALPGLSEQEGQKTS
# experimentalProtocol: Biacore 3000 (SPR): antibody captured on rabbit anti-mouse IgG on a CM5 chip, recombinant Glypican-1 added at various concentrations; BIAevaluation 4.1
kon values for the binders below.
reportedMetric: kon (M⁻¹ s⁻¹)

binder	unitSpec	quantitativeResult
anti-GPC-1 antibody 1-57 (antibody, V domains shown, detection was with anti-mouse IgG and the control was mouse IgG2a; also called #10; clone 1-57) VH: AVTLDESGGGLQTPGGGLSLVCKGSGFTLTDRGMHWVRQAPGKGLEWVAAISSSGRFTLYAPAVTGRATISRDNGQSTVRLQLNNLRAEDTGTYYCARGNAGGWWADGGEIDAWGHGTEVIVST VL: ALTQPSSVSANPGETVKITCSGGSGSYGWFQQKSPGSAPVTVIYSNNKRPTDIPSRFSGSKSGSTNTLTITGVQADDEAVYFCGSADSSYIGIFGAGTTLTV	M⁻¹ s⁻¹	12100
anti-GPC-1 antibody 2-63 (antibody, V domains shown, detection was with anti-mouse IgG and the control was mouse IgG2a; also called #18; clone 2-63) VH: AVTLDESGGGLQTPGGTLSLVCKASGFDFSSVNMFWVRQAPGKGLEFVAGIDNDATFTLYGSAVKGRASISRDNGQSTVRLQLNNLRAEDTGTYYCAKTLCSTTWGCGAYSAGDIDAWGHGTEVTVST VL: ALTQPSSVSANPGETVKITCSGGGSSGYGYYGWYQQKSPGSAPVTVIYNNNKRPTDIPSRFSGALSGSTATLTITGVQVEDEAVYYCGSRDNTYVGIFGAGTTLTV	M⁻¹ s⁻¹	137000
anti-GPC-1 antibody 2-60 (antibody, V domains shown, detection was with anti-mouse IgG and the control was mouse IgG2a; also called #17; clone 2-60) VH: AVTLDESGGGLQTPGGALSLVCKASGFTYSSYAMGWVRQAPGKGLEFVASISSDGSDTAYGSAVKGRATISRDNRQSTLRLQLNNLRAEDTGTYYCAKSYRCSWNCWDYAAKIDAWGHGTEVTVS VL: VALTQPASVSANPGETVKITCSGSGSYTGSYYYGWYQQKSPGSAPVTVIYNNNKRPSDIPSRFSGSTSGSTATLTITGVQAEDEAVYFCGSYDRSSDSGIFGAGTTLTV	M⁻¹ s⁻¹	69100
anti-GPC-1 antibody 1-12 (antibody, V domains shown, it was captured and detected with anti-mouse IgG and the control was mouse IgG2a; also called #4; clone 1-12) VH: AVTLDESGGGLQTPGRALSLVCKASGFTFSRYAMYWVRQAPGKGLEFVAGIGNTGRYTGYGSAVKGRATISRDSGQSTVRLQLNNLRAEDTGNYYCAKSVSPYCCDAADIDAWGHGTEVIVST VL: ALTQPASVSANPGETVKITCSGGSSGYAYGWYQQKSPGSAPVTLLYSNNNRPSDIPSRFSGSKSGSTATLTITGVQAEDEAVYFCGSVDSSSYAGIFGAGTTLTV	M⁻¹ s⁻¹	187000
